experiment: NFAT Signaling Pathway (AID 444); conditions: Jurkat NFAT-bla M1, carbachol, beta-lactamase ratio, 5 h; at 17.2 µM (top of the series) unless noted;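 note: carbachol stimulus at about its EC50 of 1 µM final; % is set by controls: 0 for no effect and ±100 for the full control effect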
Records with an inconclusive call do not appear.
REPORTED_METRIC: activity change, negative = inhibition (%)
Answers are plain numbers, in %.

INSERT INTO assay_data (smiles_representation, unit_annotation, result) VALUES
  ('CC(NC(=O)Nc1cccnc1)(C(F)(F)F)C(F)(F)F', '%', -11.5),
  ('CCc1nc2n[nH]c(N)c2c2c1CSC(C)(C)C2', '%', 14.6),
  ('COc1cccc(Cn2c(NCc3ccccn3)nc3c2c(=O)n(C)c(=O)n3C)c1', '%', 7.02);

Report activity change, negative = inhibition for `COC(=O)/C(C#N)=C1/SC=C(C)N1c1ccccc1` please.
3.89

###

system: CP268; test: qHTS profiling for inhibitors of Plasmodium falciparum proliferation (AID 504749); note: nearly all actives have a fitted effect of over 60% in size; details: P. falciparum in erythrocytes, SYBR Green DNA, 72 h; series mostly up to 28.7 µM
Results filed as inconclusive are left out. Activity calls are given as the source filed them. The call rests on the fitted dose curve; in most records, active means well fitted inhibition curve with a large enough effect; inconclusive means small, poorly fitted or top-dose-only effect; inactive means flat fitted curve, though single readings scatter.
API: response.call in active, inactive

INSERT INTO results (compound, label) VALUES
  ('CCCCCOC(=O)Nc1nc(=O)n(C2O[C@H](C)[C@@H](O)[C@@H]2O)cc1F (stereo partly specified)', 'inactive');

Call for entry `CCCC[C@H](O)c1ccccc1` :
inactive

Call for entry OCCOC[C@H]1O[C@H](OCCO)[C@H](OCCO)[C@@H](OCCO)[C@@H]1OCCO (tested in a mixture with another compound) :
inactive

Call for entry O=C(O)C(O)c1ccccc1 (stereo unspecified) :
inactive

Call for entry `CNC1=CN(O)C(c2ccccc2)=c2cc(Cl)ccc2=N1` :
active

Call for entry Cc1c(C)c2c(c(C)c1O)CCC(C)(CCCC(C)CCCC(C)CCCC(C)C)O2 (stereo unspecified) :
inactive

Call for entry `C=C1[C@@H]2CC[C@H](C2)C1(C)C` :
inactive

Call for entry CC(=O)N1CC(O)CC1C(=O)O (stereo unspecified) :
inactive

Call for entry NC(=O)NC(CCC(=O)O)C(=O)O (stereo unspecified) :
inactive

Call for entry `CC[C@@]1(O)C[C@H](O[C@H]2C[C@@H](N(C)C)[C@@H](O[C@H]3C[C@@H](O)[C@@H](O[C@H]4CCC(=O)[C@@H](C)O4)[C@@H](C)O3)[C@@H](C)O2)c2c(cc3c(c2O)C(=O)c2c(O)cccc2C3=O)[C@H]1C(=O)OC` :
active

Call for entry `OC[C@@H]1O[C@](CO)(O[C@H]2O[C@H](CO)[C@@H](O)[C@H](O)[C@H]2O)[C@H](O)[C@H]1O` :
inactive

###

Test system: CP215
Experiment: qHTS profiling for inhibitors of Plasmodium falciparum proliferation (AID 504749); note: nearly all actives have a fitted effect of over 60% in size
Conditions: P. falciparum in erythrocytes, SYBR Green DNA, 72 h; series mostly up to 28.7 µM
Description: NIH National Institute of Allergy and Infectious Diseases [NIAID] NIH Chemical Genomics Center [NCGC] […] Because mature erythrocytes lack DNA, only Plasmodium-derived DNA is detected. NCGC Assay Protocol Summary: The SYBR Green viability assay was adapted from a method described previously (Plouffe et al., 2008). […] The following morning, fluorescence intensity at 485(14) nm excitation and 535(25) nm emission wavelengths was measured on an EnVision (Perkin Elmer) plate reader. […]
Records with an inconclusive call do not appear. Active and inactive are the calls of the source. Calls come from the whole dose curve; as a rule, active = well fitted inhibition curve with a large enough effect; inconclusive = small, poorly fitted or top-dose-only effect; inactive = flat fitted curve, though single readings scatter.
API: response.call in 1 = active, -1 = inactive

INSERT INTO measurements (compound, label) VALUES
  ('NC[C@@H]1O[C@H](OC2[C@@H](CO)O[C@@H](OC3[C@H](O)[C@H](N)C[C@H](N)[C@H]3OC3O[C@H](CO)[C@@H](O)[C@H](O)[C@@H]3N)[C@H]2O)C(N)[C@H](O)[C@@H]1O (some centres not stated)', -1);

Call for entry C=CCN1CC(C(=O)N(CCCN(C)C)C(=O)NCC)CC2c3cccc4[nH]cc(c34)CC21 (configuration not stated) :
-1

Call for entry CCC(C(=O)C(C)C(O)C(C)CCc1ccc(C)c(O)c1C(=O)O)C1OC(CC)(C2CC[C@@](O)(CC)C(C)O2)CC1C (some centres not stated) :
1

Call for entry NC(=O)NC(CCC(=O)O)C(=O)O (configuration not stated) :
-1

Call for entry Cc1c(C)c2c(c(C)c1O)CCC(C)(CCCC(C)CCCC(C)CCCC(C)C)O2 (configuration not stated) :
-1

Call for entry `CC[C@H](C)[C@H]1O[C@]2(CC[C@@H]1C)C[C@@H]1C[C@@H](C/C=C(\C)[C@H](O[C@@H]3C[C@H](OC)[C@H](O[C@@H]4C[C@H](OC)[C@@H](O)[C@H](C)O4)[C@H](C)O3)[C@@H](C)/C=C/C=C3\CO[C@@H]4[C@H](O)C(C)=C[C@@H](C(=O)O1)[C@]34O)O2` :
1

Call for entry CC1C(=O)C(=O)C=CN1C (configuration not stated) :
-1

Call for entry `CCN(CC)CC(=O)Nc1c(C)cc(C)cc1C` :
-1

Call for entry `O=[N+]([O-])O[C@H]1CO[C@H]2[C@@H]1OC[C@H]2O` :
-1

Call for entry Cc1ccc(/C=C2/C(=O)C3(C)CCC2C3(C)C)cc1 (configuration not stated) :
-1

Call for entry `C=C(NCc1ccccc1)c1ccccc1O` :
-1

Call for entry OCC(O)C(O)C(O)C(O)CO (configuration not stated) :
-1

###

system: CP262; test: qHTS profiling for inhibitors of Plasmodium falciparum proliferation (AID 504749); note: nearly all actives have a fitted effect of over 60% in size; conditions: P. falciparum in erythrocytes, SYBR Green DNA, 72 h; series mostly up to 28.7 µM
Results filed as inconclusive are left out. Active and inactive are the calls of the source. Calls come from the whole dose curve; as a rule, active = well fitted inhibition curve with a large enough effect; inconclusive = small, poorly fitted or top-dose-only effect; inactive = flat fitted curve, though single readings scatter.
API: response.call in active, inactive

INSERT INTO assay_data (compound, label) VALUES
  ('OC[C@@H](O)C(O[C@@H]1O[C@@H](CO)[C@H](O)[C@H](O)[C@H]1O)[C@H](O)[C@@H](O)CO (stereo partly drawn)', 'inactive'),
  ('CCC(C(=O)C(C)C(O)C(C)CCc1ccc(C)c(O)c1C(=O)O)C1OC(CC)(C2CC[C@@](O)(CC)C(C)O2)CC1C (stereo partly drawn)', 'active'),
  ('C=C1CC[C@H](O)C/C1=C/C=C1\CCC[C@]2(C)[C@@H]([C@H](C)CC[C@@H](O)C(C)(C)O)CC[C@@H]12', 'inactive'),
  ('C=NC(C(=O)NC1C(=O)N2C1SC(C)(C)C2C(=O)O)c1ccccc1 (stereo not drawn)', 'inactive'),
  ('CC(=O)N1CC(O)CC1C(=O)O (stereo not drawn)', 'inactive');

Call for entry CC1(C)CC1C(=O)N/C(=C/CCCCSCC(N)C(=O)O)C(=O)O (stereo not drawn) :
inactive

Call for entry COC(c1ccccc1)(c1ccccc1)C(Oc1nc(C)cc(C)n1)C(=O)O (stereo not drawn) :
inactive

Call for entry `CC1=C(c2ccc(NN=C(C#N)C#N)cc2)NNC(=O)C1` :
inactive

Call for entry `C[C@@H]1CCN(C(=O)[C@H](CCCNC(=N)N)NS(=O)(=O)c2cccc3c2NC[C@H](C)C3)[C@@H](C(=O)O)C1` :
inactive

Call for entry CCN1CCN(C(=O)NC(C(=O)NC2C(=O)N3C(C(=O)O)=C(CSc4nnnn4C)CSC23)c2ccc(O)cc2)C(=O)C1=O (stereo not drawn) :
inactive

Call for entry `CO[C@H]1C[C@@H]2CC[C@@H](C)[C@@](O)(O2)C(=O)C(=O)N2CCCC[C@H]2C(=O)O[C@H]([C@H](C)C[C@@H]2CC[C@@H](O)[C@H](OC)C2)CC(=O)[C@H](C)/C=C(\C)[C@@H](O)[C@@H](OC)C(=O)[C@H](C)C[C@H](C)/C=C/C=C/C=C/1C` :
active

Call for entry `CC[C@]1([C@H]2O[C@@H]([C@@H]3O[C@](O)(CO)[C@@H](C)C[C@H]3C)C[C@H]2C)CC[C@@H]([C@]2(C)CC[C@@]3(C[C@@H](O)[C@@H](C)[C@@H]([C@H](C)[C@H](OC)[C@H](C)C(=O)O)O3)O2)O1` :
active

Call for entry `CO/N=C(/C(=O)N[C@@H]1C(=O)N2C(C(=O)O)=C(CSc3nc(C)c(CC(=O)O)s3)CS[C@H]12)c1csc(N)n1` :
inactive

###

Record form. Attribute: Potency. Fill in for each entry.
Test: qHTS profiling for inhibitors of Plasmodium falciparum proliferation (AID 504749); note: nearly all actives have a fitted effect of over 60% in size; note: potency is the fitted concentration of half-maximal effect
Details: P. falciparum in erythrocytes, SYBR Green DNA, 72 h; parasite line B
Method: NIH National Institute of Allergy and Infectious Diseases [NIAID] NIH Chemical Genomics Center [NCGC] […] Because mature erythrocytes lack DNA, only Plasmodium-derived DNA is detected. NCGC Assay Protocol Summary: The SYBR Green viability assay was adapted from a method described previously (Plouffe et al., 2008). […] The following morning, fluorescence intensity at 485(14) nm excitation and 535(25) nm emission wavelengths was measured on an EnVision (Perkin Elmer) plate reader. […]
Records with an inconclusive call do not appear. Activity calls are given as the source filed them. The call rests on the fitted dose curve; in most records, active means well fitted inhibition curve with a large enough effect; inconclusive means small, poorly fitted or top-dose-only effect; inactive means flat fitted curve, though single readings scatter.

INSERT INTO measurements (compound, reported_metric, result) VALUES
  ('C[N+]12CCCC[C@@H]1CCC(=C(c1cccs1)c1cccs1)C2 (some centres not stated)', 'Potency', '12.6 µM (active)'),
  ('CC(C)C[C@@H](NC(=O)[C@@H](Cc1ccccc1)NC(=O)c1cnccn1)B(O)O', 'Potency', '0.0794 µM (active)'),
  ('CC(=O)C1(O)Cc2c(O)c3c(c(O)c2C(OC2CC(N)C(O)C(C)O2)C1)C(=O)c1c(O)cccc1C3=O (configuration not stated)', 'Potency', '11.2 µM (active)'),
  ('CC(C)C(=O)OCC(=O)[C@@]12OC(C3CCCCC3)O[C@@H]1CC1C3CCC4=CC(=O)C=C[C@]4(C)C3[C@@H](O)C[C@@]12C (some centres not stated)', 'Potency', '0.562 µM (active)'),
  ('CO[C@H]1C[C@@H]2CC[C@@H](C)[C@@](O)(O2)C(=O)C(=O)N2CCCC[C@H]2C(=O)O[C@H]([C@H](C)C[C@@H]2CC[C@@H](O)[C@H](OC)C2)CC(=O)[C@H](C)/C=C(\C)[C@@H](O)[C@@H](OC)C(=O)[C@H](C)C[C@H](C)/C=C/C=C/C=C/1C', 'Potency', '1.78 µM (active)');

Each compound below has a recorded value; state its Potency.
1. Nc1nc2[nH]cc(CCc3ccc(C(=O)NC(CCC(=O)O)C(=O)O)cc3)c2c(=O)[nH]1 (configuration not stated)
2. CCC(C(=O)O)C1OC(C(C)C(O)C(C)C(=O)C(CC)C2OC3(C=CC(O)C4(CCC(C)(C5CCC(O)(CC)C(C)O5)O4)O3)C(C)CC2C)C(C)CC1C (configuration not stated)

["0.199 µM (active)", "0.158 µM (active)"]
